system_under_test: human ghrelin receptor (GRLN, growth hormone secretagogue receptor, hGHS-R1a) (Homo sapiens)
Construct: purchased PerkinElmer BioSignal #RBHGHSM, lot#1887; host or cells: HEK-293 cells, stably transfected (membranes)
test_name: Competitive radioligand binding assay (ghrelin receptor), Method B1
test_settings: Ghrelin receptor binding activity, Method B1
Description: Multiscreen Harvest plates-GF/C (Millipore, #MAHFC1H60) • 4. […] Bottom seal (Millipore, #MATAH0P00) • 7. […] Binding Buffer: 25 mM Hepes (pH 7.4), 1 mM CaCl2, 5 mM MgCl2. 2.5 mM EDTA, 0.4% BSA […] Plates were sealed with TopSeal-A, vortexed gently and incubated at rt for 30 min. […] Plates were than sealed with TopSeal-A and counted for 30 sec per well on a TopCount Microplate Scintillation and Luminescence Counter (PerkinElmer) using a count delay of 60 sec. Results were expressed as counts per minute (cpm). […]
IC50: recorded values

{"compound": "CC(O)[C@H]1C(=O)N[C@H](Cc2ccc(F)cc2)C(=O)N[C@H](C)CCc2ccc(F)cc2O[C@H](C)CN[C@@H](C2(C)CC2)C(=O)N1C (stereo partly drawn)", "result": "10 to 100 nM"}

Short answer for CC[C@@H]1CCc2c(cccc2C(F)(F)F)OCCN[C@@H](C(C)C)C(=O)N(C)[C@@H](C(C)O)C(=O)N[C@H](Cc2ccccc2)C(=O)N1 (stereo partly drawn) : IC50 was > 500 nM

###

system_under_test: human ghrelin receptor (GRLN, growth hormone secretagogue receptor, hGHS-R1a) (Homo sapiens, UniProt Q92847)
Construct: purchased PerkinElmer BioSignal #RBHGHSM, lot#1887; host or cells: HEK-293 cells, stably transfected (membranes)
Sequence (Q92847 whole entry): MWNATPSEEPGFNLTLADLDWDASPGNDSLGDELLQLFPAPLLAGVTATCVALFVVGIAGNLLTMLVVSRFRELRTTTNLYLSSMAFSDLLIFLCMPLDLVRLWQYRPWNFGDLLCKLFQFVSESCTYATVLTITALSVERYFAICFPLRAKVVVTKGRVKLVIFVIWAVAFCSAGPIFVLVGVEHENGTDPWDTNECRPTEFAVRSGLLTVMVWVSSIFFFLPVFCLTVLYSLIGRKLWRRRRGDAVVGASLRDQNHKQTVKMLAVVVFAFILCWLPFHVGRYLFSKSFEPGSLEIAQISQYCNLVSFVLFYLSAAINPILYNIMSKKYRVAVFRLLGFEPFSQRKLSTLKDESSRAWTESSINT
test_name: Competitive radioligand binding assay (ghrelin receptor), Method B1
test_settings: Ghrelin receptor binding activity, Method B1
property_name: IC50

Solved entries:
{"molecule": "CCC(C)C1NCCOc2ccccc2C=CCNC(=O)C(Cc2ccc(C)cc2)NC(=O)C(C(C)O)N(C)C1=O (stereo not drawn)", "property_name": "IC50", "result": "10 to 100 nM"}
{"molecule": "CC(O)[C@H]1C(=O)N[C@H](Cc2c[nH]c3ccccc23)C(=O)N[C@H](C)C#Cc2ccc(F)cc2O[C@H](C)CN[C@@H](C2(C)CC2)C(=O)N1C (stereo partly drawn)", "property_name": "IC50", "result": "10 to 100 nM"}

Recorded result, CCC(C)C1NCCOc2ccc(F)cc2C=CCNC(=O)C(Cc2ccc(Cl)cc2)NC(=O)C(C(C)O)N(C)C1=O (stereo not drawn) , IC50: 1 to 10 nM

###

system_under_test: human ghrelin receptor (GRLN, growth hormone secretagogue receptor, hGHS-R1a) (Homo sapiens, UniProt Q92847)
Construct: purchased PerkinElmer BioSignal #RBHGHSM, lot#1887; host or cells: HEK-293 cells, stably transfected (membranes)
test_name: Competitive radioligand binding assay (ghrelin receptor), Method B1
property_name: IC50

These recorded examples may help you get a feel for the data.
{"compound": "CC[C@H](C)[C@@H]1NC/C=C/c2ccccc2CCCNC(=O)[C@@H](Cc2ccccc2)NC(=O)[C@H]([C@H](C)O)N(C)C1=O", "property_name": "IC50", "result": "> 0.5 µM"}
{"compound": "CC(O)[C@H]1C(=O)N[C@H](Cc2ccccc2)C(=O)NCC#Cc2ccccc2OCCN[C@@H](C2(C)CC2)C(=O)N1C (stereo partly drawn)", "property_name": "IC50", "result": "0.001 to 0.01 µM"}
{"compound": "CC(C)[C@@H]1NCCOc2cccc(F)c2C#CCNC(=O)[C@@H](Cc2ccccc2)NC(=O)[C@H](C(C)O)N(C)C1=O (stereo partly drawn)", "property_name": "IC50", "result": "0.001 to 0.01 µM"}
{"compound": "CC[C@@H]1CCc2ccc(F)cc2OCCN[C@@H](C(C)C)C(=O)N(C)[C@@H](C(C)O)C(=O)N[C@H](Cc2c[nH]c3ccccc23)C(=O)N1 (stereo partly drawn)", "property_name": "IC50", "result": "0.001 to 0.01 µM"}
{"compound": "CCC(C)[C@@H]1NCCOc2ccccc2/C=C/CNC(=O)[C@@H](Cc2ccc(C(F)(F)F)cc2)NC(=O)[C@H](C(C)O)N(C)C1=O (stereo partly drawn)", "property_name": "IC50", "result": "0.01 to 0.1 µM"}

IC50 for CCC(C)[C@@H]1NCCOc2ccccc2C[C@H](O)CNC(=O)[C@@H](Cc2ccccc2)NC(=O)[C@H](C(C)O)N(C)C1=O (stereo partly drawn) is 0.01 to 0.1 µM

The compound listed as CCC(C)[C@@H]1NCCOc2ccccc2CC[C@@H](C)NC(=O)[C@@H](Cc2ccccc2)NC(=O)[C@H](C(C)O)N(C)C1=O (stereo partly drawn) has a reported IC50 of 0.001 to 0.01 µM

Item: CC(O)[C@H]1C(=O)N[C@H](Cc2ccccc2)C(=O)NCCCc2cccc3c2OC(CC3)CN[C@@H](C2CC2)C(=O)N1C (stereo partly drawn) | IC50: 0.01 to 0.1 µM

// sample CC(O)[C@H]1C(=O)N[C@H](Cc2ccccc2)C(=O)NCC#Cc2ccc(F)cc2OCCN[C@@H](C2(C)CC2)C(=O)N1C (stereo partly drawn) , its IC50 was 0.001 to 0.01 µM

CC(C)[C@@H]1NCCOc2ccccc2C#C[C@@H](C)NC(=O)[C@@H](Cc2ccccc2)NC(=O)[C@H](C(C)O)N(C)C1=O (stereo partly drawn) has a reported IC50 of 0.001 to 0.01 µM

Lab book: IC50 of CC(O)[C@H]1C(=O)N[C@H](Cc2ccccc2)C(=O)NCC#Cc2c(F)cccc2OCCN[C@@H](C2(C)CC2)C(=O)N1C (stereo partly drawn) noted as 0.001 to 0.01 µM

Please fill in: IC50 reported for CC(C)[C@@H]1NCCOc2ccccc2/C=C/CNC(=O)[C@@H](Cc2ccccc2)NC(=O)[C@H](C(C)O)N(C)C1=O (stereo partly drawn) = 0.01 to 0.1 µM

All values here come from patent US20110105389A1.
